Recorded measurements of IC50, one per entry
Tested on: LNCaP ARE-Luc
Test: Luciferase assay in LNCaP cell lysates (LNCaP ARE-Luc)
Assay type: cell-based
Conditions: Homo sapiens, Firefly Luciferase Assay System, read-out: LNCaP ARE-Luc % inhibition IC50 Ranges
Method: Lysates were thawed on ice then collected into V-bottom 96-well tissue culture plates. Lysates were centrifuged at 4° C. for 5 minutes at 4000 rpm. To measure luminescence of LNCaP cell lysates the Firefly Luciferase Assay System (Promega) was employed, according to manufacturer's protocol. Relative luminescence units (RLU) in cell lysates were detected for 10 seconds using Promega GoMax-Multi Detection Luminometer (Promega). […]

| compound | IC50 |
| --- | --- |
| Cc1cc(C(C)(C)c2ccc(OCC(=O)CNS(C)(=O)=O)cc2)ccc1OCCCCl | < 100 nM |
| COC(=O)C(OC)C(O)(O)C(F)(F)Oc1ccc(C(C)(C)c2cc(Cl)c(OCCCCl)c(Cl)c2)cc1 (stereo not shown) | 100 to 250 nM |
| CS(=O)(=O)NCC(=O)COc1ccc(-c2cc(Cl)c(OCC(O)CCl)c(Cl)c2)cc1 (stereo not shown) | ≥ 250 nM |

Moving on to another compound below.
query: Query the reported IC50 for LNCaP ARE-Luc; item: CC(C)(c1ccc(OCC(=O)C(F)(F)F)cc1)c1cc(Cl)c(OCCCCl)c(Cl)c1
result: ≥ 250 nM

* * *

Recorded measurements of microsomal CLint at 1 μM, one per entry
assay: Microsomal stability assay, HLM; type: in vitro ADME; settings: human, pH 7.4, 1 μM test compound, 0.5 mg/mL liver microsomes protein, 37° C., 0-60 min, read-out: HLM +/− NADPH: Clint (μL/min/mg protein)

Here are 3 compounds together with their reported answers.
| compound | readoutValue |
| --- | --- |
| CS(=O)(=O)NCC(=O)COc1ccc(-c2cc(Cl)c(OCCCCl)c(Cl)c2)cc1 | 12 to 48 µL/min/mg |
| CC(C)NC(=O)COc1ccc(C(C)(C)c2cc(Cl)c(OCCCCl)c(Cl)c2)cc1 | 12 to 48 µL/min/mg |
| CC(C)(c1cccc(OCC(=O)CNS(C)(=O)=O)c1)c1ccc(Cl)c(OCCCCl)c1Cl | < 12 µL/min/mg |

Moving on to another compound below.
query: Would you kindly share the measured microsomal CLint at 1 μM for CC(C)(c1ccc(OCC(=O)CNS(C)(=O)=O)cc1)c1cc(Cl)c(OCCCBr)c(Cl)c1 ?
result: ≥ 48 µL/min/mg

* * *

tested on: LNCaP ARE-Luc; assay: Luciferase assay in LNCaP cell lysates (LNCaP ARE-Luc); type: cell-based; settings: Homo sapiens, Firefly Luciferase Assay System, read-out: LNCaP ARE-Luc % inhibition IC50 Ranges
readoutLabel: IC50

Here are 3 compounds together with their reported answers.
| compound | readoutLabel | readoutValue |
| --- | --- | --- |
| CC(C)(c1ccc(OCC(=O)CS(C)(=O)=O)cc1)c1cc(Cl)c(OC[C@H](O)CCl)c(Cl)c1 [A54(S)] | IC50 | ≥ 250 nM |
| CC(O)(CCl)COc1c(Cl)cc(C(C)(C)c2ccc(OCC(=O)CNS(C)(=O)=O)cc2)cc1Cl (stereo not drawn) [Compound A52] | IC50 | < 100 nM |
| CC(=O)N(CC(=O)COc1ccc(C(C)(C)c2cc(Cl)c(OCCCCl)c(Cl)c2)cc1)S(C)(=O)=O [Compound A104] | IC50 | ≥ 250 nM |

query: Would you kindly share the measured IC50 for CC(C)NC(=O)COc1ccc(C(C)(C)c2cc(Cl)c(OCCCCl)c(Cl)c2)cc1 [Compound A30] ?
result: ≥ 250 nM

query: Would you kindly share the measured IC50 for CC(O)(CCl)COc1c(Cl)cc(C(C)(C)c2ccc(OCC(=O)CS(C)(=O)=O)cc2)cc1Cl (stereo not drawn) [Compound A53] ?
result: ≥ 250 nM

query: Would you kindly share the measured IC50 for CS(=O)(=O)NCC(=O)COc1ccccc1Cc1cc(Cl)c(OCCCCl)c(Cl)c1 [Compound A49] ?
result: ≥ 250 nM

query: Would you kindly share the measured IC50 for CC(C)(c1ccc(OCC(=O)CNS(C)(=O)=O)c(F)c1)c1cc(Cl)c(OCCCCl)c(Cl)c1 [Compound A48] ?
result: 100 to 250 nM

query: Would you kindly share the measured IC50 for CCOC(=O)CC(=O)C(F)(F)Oc1ccc(C(C)(C)c2cc(Cl)c(OCCCCl)c(Cl)c2)cc1 [Compound A101] ?
result: ≥ 250 nM

query: Would you kindly share the measured IC50 for CC(=O)N(c1ccc(OCC(=O)CNS(C)(=O)=O)cc1)c1cc(Cl)c(OCCCCl)c(Cl)c1 [Compound A71] ?
result: ≥ 250 nM
